// provenance: ChEMBL document CHEMBL1143080

- MEASUREMENT_TARGET: Androgen receptor (Homo sapiens, UniProt P10275)
- Sequence (P10275 whole entry): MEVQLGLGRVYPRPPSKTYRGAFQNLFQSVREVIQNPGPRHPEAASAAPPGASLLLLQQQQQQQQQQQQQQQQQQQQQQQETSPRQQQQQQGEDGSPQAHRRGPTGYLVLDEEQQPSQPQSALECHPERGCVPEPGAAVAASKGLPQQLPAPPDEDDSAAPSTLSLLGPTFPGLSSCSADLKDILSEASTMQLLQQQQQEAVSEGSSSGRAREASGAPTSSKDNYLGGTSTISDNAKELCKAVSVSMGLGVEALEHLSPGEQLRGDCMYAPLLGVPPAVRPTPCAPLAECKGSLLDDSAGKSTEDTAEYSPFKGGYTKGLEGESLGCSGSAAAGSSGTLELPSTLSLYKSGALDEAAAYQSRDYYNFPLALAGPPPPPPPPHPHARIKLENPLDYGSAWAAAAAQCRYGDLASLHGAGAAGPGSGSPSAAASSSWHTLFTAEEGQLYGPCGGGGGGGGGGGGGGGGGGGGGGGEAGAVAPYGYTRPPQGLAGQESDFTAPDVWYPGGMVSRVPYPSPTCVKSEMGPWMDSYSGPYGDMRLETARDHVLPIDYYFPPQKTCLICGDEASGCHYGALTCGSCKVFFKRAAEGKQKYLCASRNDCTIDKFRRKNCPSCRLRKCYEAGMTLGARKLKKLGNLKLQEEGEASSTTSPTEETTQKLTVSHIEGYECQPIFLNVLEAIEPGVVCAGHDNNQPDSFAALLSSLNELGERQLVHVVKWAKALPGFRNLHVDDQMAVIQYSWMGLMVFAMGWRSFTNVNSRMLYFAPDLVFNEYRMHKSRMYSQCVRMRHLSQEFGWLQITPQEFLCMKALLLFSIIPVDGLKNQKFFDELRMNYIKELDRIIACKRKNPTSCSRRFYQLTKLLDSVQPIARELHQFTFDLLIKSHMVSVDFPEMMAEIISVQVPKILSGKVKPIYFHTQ
pKi: −log10 of the molar value.
Mark Yes for reported pKi of 8 or greater; mark No for anything smaller.

Worked examples follow.
COMPOUND: COc1cccc2c(=O)oc3c(ccc4[nH]c(=O)cc(C(F)(F)F)c43)c12
DISCRETE_LABEL: No
//
COMPOUND: COc1cccc2c1-c1ccc3[nH]c(=O)cc(C(F)(F)F)c3c1OC2
DISCRETE_LABEL: No
//
COMPOUND: CCOc1ccc2oc(=O)c3c(ccc4[nH]c(=O)cc(C)c43)c2c1OC
DISCRETE_LABEL: No
//
COMPOUND: COc1c(O)ccc2c1-c1ccc3[nH]c(=O)cc(C)c3c1CO2
DISCRETE_LABEL: Yes
//
COMPOUND: COc1cccc2c1-c1ccc3[nH]c(=O)cc(C)c3c1C(C)O2 (centres undefined)
DISCRETE_LABEL: No
//
COMPOUND: O=c1cc(C(F)(F)F)c2c3c(ccc2[nH]1)-c1c(O)cccc1OC3
DISCRETE_LABEL: Yes

As a next step, examine the compound that follows.
**Q:** Determine whether measured pKi meets or exceeds 8 for `COc1c(OC(C)C)ccc2oc(=O)c3c(ccc4[nH]c(=O)cc(C)c43)c12`
**A:** No
